- Protocol notes: Stability in human liver microsomes
- Type: in vitro ADME
- Experimental setup: 37° C., NADPH
Parameter measured: percent of compound remaining after 60 min in human liver microsomes

>  <Compound>
CC(C)(CO)c1cc(-c2csc(-c3ccc(NC(=O)N4CCC(O)CC4)cc3Cl)c2)ccn1

>  <Value observed>
++ (30.1-60 = ++)

$$$$
>  <Compound>
O=C(Nc1ccc(-c2cc(-c3ccnc(C4(CO)CC4)c3)cs2)c(Cl)c1)OC1CC1

>  <Value observed>
+++ (>60.1 = +++)

$$$$
>  <Compound>
CC(C)(C)c1cc(-c2csc(-c3ccc(S(C)(=O)=O)cc3)c2)ccn1

>  <Value observed>
+++ (>60.1 = +++)

$$$$
>  <Compound>
CC(C)(C)c1cc(-c2csc(-c3ccc(NC(=O)NC4CCNCC4)cc3Cl)c2)ccn1

>  <Value observed>
+++ (>60.1 = +++)

$$$$

## Task Return percent of compound remaining after 60 min in human liver microsomes for the following compound: CC(C)(C)c1cc(-c2csc(-c3ccc(NC(=O)N4CCC(O)CC4)cc3Cl)c2)ccn1
## Result +++ (>60.1 = +++)

## Task Return percent of compound remaining after 60 min in human liver microsomes for the following compound: O=S(=O)(Nc1ccc(-c2cc(-c3ccnc(C4(CO)CC4)c3)cs2)c(Cl)c1)NC1CC1
## Result ++ (30.1-60 = ++)

Measured values drawn from patent US20220056018A1 for this set.
